Test: NCI Yeast Anticancer Drug Screen. Data for the cln2 rad14 strain (AID 165);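 note: 0% = growth equal to vehicle treated cultures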
Conditions: S. cerevisiae cln2 rad14 strain, at 50.0 µM, stronger effect = higher value
This is part of a sample that, as a whole, favours compounds with a hit. Of some 79,000 tested, about 15% had one in any assay.
parameter: growth inhibition (%)
Kindly provide the numeric value in % only, without the unit symbol.

A selection of reference data follows.
O=C(CC1=NC2NN(c3ccccc3)C(=O)C2=C1CC(=O)c1ccc(F)cc1)c1ccc(F)cc1 (stereo unspecified) :: 13.1
Cc1ccc(C)c2c1C1CCCCC3(OCCCO3)C21O (stereo unspecified) :: -6.9
CC(=O)c1c(C)nc(SSc2nc(C)c(C(C)=O)c(-c3ccc(Cl)cc3)c2C#N)c(C#N)c1-c1ccc(Cl)cc1 :: 6.35
CN(C)N=Nc1c(F)cc(F)c(F)c1F :: -14.2
NNC(=O)C(=O)N/N=C1\CCCC1C(=O)CCC(=O)Nc1cccc(Cl)c1 (stereo unspecified) :: -1.65
CC(C)([NH-])C[NH-].O=C(O)CCO.[Pt+2] :: 17.6
CCOC(=O)c1ccnc(F)c1 :: -8.8
O=C(c1ccccc1)C(O)(c1ccccc1)c1ccccc1 :: -31.1
CC(=O)Oc1cc(Oc2c(OC(C)=O)cc(Oc3c(OC(C)=O)cc(OC(C)=O)c(OC(C)=O)c3OC(C)=O)cc2OC(C)=O)cc(OC(C)=O)c1OC(C)=O :: 4.5
O=C1Nc2cccc3cc(NCC(O)CCCl)cc1c23 (stereo unspecified) :: -5.8

Proceed to the following item.
Query block: I'd like to know its growth inhibition. The compound in question is CCCCCCCCCCCCCCCCCCOCCCCCC
Result block: 4.2

Each recorded value in this set is attributed to PubChem BioAssay (NCI).
